Biological target: Sodium-dependent dopamine transporter (Homo sapiens, UniProt Q01959)
Sequence (Q01959 whole entry): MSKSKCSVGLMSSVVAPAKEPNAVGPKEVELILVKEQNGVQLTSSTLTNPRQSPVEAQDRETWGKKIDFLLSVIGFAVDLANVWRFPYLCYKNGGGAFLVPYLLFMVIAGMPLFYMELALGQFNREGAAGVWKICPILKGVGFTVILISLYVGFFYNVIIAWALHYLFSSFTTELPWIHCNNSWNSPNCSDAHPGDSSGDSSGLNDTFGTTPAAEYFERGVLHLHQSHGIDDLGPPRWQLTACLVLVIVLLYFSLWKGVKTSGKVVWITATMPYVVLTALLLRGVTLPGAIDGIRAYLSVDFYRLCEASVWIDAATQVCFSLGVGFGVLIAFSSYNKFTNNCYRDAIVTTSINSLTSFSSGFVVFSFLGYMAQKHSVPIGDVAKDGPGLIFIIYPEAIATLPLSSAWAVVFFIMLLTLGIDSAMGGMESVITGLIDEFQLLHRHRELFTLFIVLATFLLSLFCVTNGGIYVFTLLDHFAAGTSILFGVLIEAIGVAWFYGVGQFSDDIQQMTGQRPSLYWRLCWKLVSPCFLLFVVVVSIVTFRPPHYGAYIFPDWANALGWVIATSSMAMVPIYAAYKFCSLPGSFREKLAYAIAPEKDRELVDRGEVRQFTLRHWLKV
Assay: GPCRScan assay: inhibition of DAT
Design: radioligand conc. used [nm] 3.6 – 16.0, parental cells stable HEK
Conditions: read-out: Ki
property.measured: Ki
Note: a bare number is incomplete; add the unit.

Entry CN(C)C(=O)Cn1cc(-c2nc(C3(c4ccc(-c5cnc(N)nc5)cc4)CC3)no2)cn1 ; assay system Sodium-dependent dopamine transporter (Homo sapiens, UniProt Q01959); Ki recorded at 855 nM

* * *

Target: hERG (KCNH2) (Homo sapiens, UniProt Q12809)
Sequence (Q12809 whole entry): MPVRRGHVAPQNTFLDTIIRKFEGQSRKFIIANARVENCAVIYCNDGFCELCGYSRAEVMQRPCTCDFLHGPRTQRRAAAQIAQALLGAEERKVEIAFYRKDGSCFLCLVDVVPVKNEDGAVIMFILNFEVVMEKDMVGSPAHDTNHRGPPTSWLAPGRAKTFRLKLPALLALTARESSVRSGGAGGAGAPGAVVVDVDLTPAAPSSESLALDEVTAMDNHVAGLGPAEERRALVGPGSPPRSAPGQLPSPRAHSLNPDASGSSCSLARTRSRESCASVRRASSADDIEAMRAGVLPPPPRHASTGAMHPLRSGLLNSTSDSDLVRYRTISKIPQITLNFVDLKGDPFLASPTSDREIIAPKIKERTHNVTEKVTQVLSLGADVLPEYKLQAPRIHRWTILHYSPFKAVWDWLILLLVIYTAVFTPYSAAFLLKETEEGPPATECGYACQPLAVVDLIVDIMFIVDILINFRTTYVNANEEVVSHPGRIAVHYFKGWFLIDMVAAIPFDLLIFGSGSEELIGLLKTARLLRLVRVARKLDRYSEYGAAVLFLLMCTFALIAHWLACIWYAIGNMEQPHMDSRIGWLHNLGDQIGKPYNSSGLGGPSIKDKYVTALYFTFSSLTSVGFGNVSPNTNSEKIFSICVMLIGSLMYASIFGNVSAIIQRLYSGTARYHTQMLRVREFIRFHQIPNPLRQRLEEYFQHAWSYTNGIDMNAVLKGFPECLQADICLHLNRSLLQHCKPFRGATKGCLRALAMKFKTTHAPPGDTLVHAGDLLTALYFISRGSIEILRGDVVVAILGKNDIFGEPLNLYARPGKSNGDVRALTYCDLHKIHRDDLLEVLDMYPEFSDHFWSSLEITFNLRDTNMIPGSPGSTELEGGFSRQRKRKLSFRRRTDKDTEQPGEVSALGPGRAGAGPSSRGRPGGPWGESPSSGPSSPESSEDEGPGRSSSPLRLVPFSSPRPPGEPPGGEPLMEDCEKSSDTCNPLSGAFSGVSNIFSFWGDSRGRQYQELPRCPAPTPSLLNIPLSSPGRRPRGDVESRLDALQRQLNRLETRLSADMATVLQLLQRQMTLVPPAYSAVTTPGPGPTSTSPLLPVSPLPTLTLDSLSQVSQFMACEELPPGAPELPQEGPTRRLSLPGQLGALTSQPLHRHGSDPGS
Assay: K+/HERG Eurofins-Panlabs selectivity data (BI)
Conditions: compound concentration 10 uM, read-out: % Ctrl
property.measured: activity at 10 µM

Reported activity at 10 µM ( CN(C)C(=O)Cn1cc(-c2nc([C@@](C)(c3ccc(-c4cnc(N)nc4)cc3)C3CC3)no2)cn1 ) = 90% (not active)
